measurementNotes: Inhibition of human HSP70/DnaJ-mediated luciferase refolding after 10 mins by liquid scintillation counting
pIC50: −log10 of the molar value.
# reported pIC50; entries follow

Known pIC50 results, listed for orientation:
| compound | pIC50 |
| --- | --- |
| CCCCCOC(=O)C1=C(C)NC2(O)c3ccccc3C(=O)C12O (stereo unspecified) | < 4.52 |
| Clc1ccc(Nc2nc(-c3cccs3)cs2)cc1 | < 4.00 |
| Clc1ccccc1C1Oc2ccccc2-c2cc(-c3ccco3)nn21 (stereo unspecified) | < 4.00 |
| CCCOC(=O)c1cccc(NC(=O)COc2ccccc2Cl)c1 | 6.22 |

Lookup: Quick check: pIC50 of CCOC(=O)c1cccc(NC(=O)COc2ccc(Cl)cc2)c1 ?
Found: < 4.49

Lookup: Quick check: pIC50 of COC(=O)c1cccc(NC(=O)COc2ccc(Cl)cc2Cl)c1 ?
Found: < 4.49
